Reported Ratio values follow for various molecules
Test system: Candida albicans
Test: Inhibition of Candida albicans MDR1 expressed in Saccharomyces cerevisiae AD assessed as ratio of MIC80 of compound in combinantion with fluconazole to MIC80 of compound alone for Saccharomyces cerevisiae AD by checkerboard method
Lab note: jot down the number only; don't add units.

CC(=O)O[C@H]1[C@@H](OC(C)=O)C(C)(C)/C=C/[C@@](C)(O)C(=O)[C@@]2(O)C[C@@](C)(OC(C)=O)[C@H](OC(C)=O)[C@@H]2[C@H]2OC(=O)CC[C@@]2(OC(C)=O)[C@@H]1OC(=O)C(C)C :: 0.5
C=C1[C@@H](OC(=O)C(C)CC)[C@H]2[C@@H](O)[C@](C)(OC(C)=O)C[C@]2(O)C(=O)[C@@H](C)/C=C/C(C)(C)[C@H](OC(C)=O)[C@H](OC(C)=O)[C@H]1OC(=O)c1ccccc1 (some centres undefined) :: 1
C=C1[C@@H](OC(C)=O)[C@H]2[C@@H](OC(=O)c3ccccc3)[C@@H](C)C[C@]2(O)[C@H](O)[C@H](C)/C=C/C(C)(C)C(=O)[C@H](OC(=O)C(C)C)[C@H]1OC(C)=O :: 1

Note: attention shifts to another entry.
Request: # lookup: Ratio of C=C1[C@@H](OC(C)=O)[C@H]2[C@@H](OC(=O)COC(=O)c3ccccc3)[C@](C)(OC(C)=O)C[C@]2(O)C(=O)[C@@H](C)/C=C/C(C)(C)[C@H](OC(C)=O)[C@H](OC(C)=O)[C@H]1OC(=O)C(C)C
Result: 1
